Tested on: Brain
Assay Name: Inhibition of lipid peroxidation in Sprague-Dawley rat brain after 30 mins by TBARS assay
Type: functional, tissue-based
Reported Conditions: 0.5 h
What IC50 was measured for each of the following?
One number for each entry, in nM.

Example results:
Compound: CCCC(C)Oc1cc(/C=C/C(=O)O)cc(OC(C)CCC)c1O (stereo not drawn)
Units Text: nM
Quantitative Readout: 4840

Compound: CCCCCCOc1cc(/C=C/C(=O)NCCCc2ccc(C)c(C)c2)cc(OCCCCCC)c1O
Units Text: nM
Quantitative Readout: 290

As a next step, examine the compound that follows.
query: Can you look up the measured IC50 of `COc1cc(/C=C/C(=O)NCCc2cc(C(C)(C)C)c(O)c(C(C)(C)C)c2)cc(OC)c1O` for me?
result: 690
